Field: activity, negative = inhibition. Provide a value for each of the compounds that follow.
Molecular target: Cytochrome P450 2C19 (Homo sapiens) (UniProt P33261)
Sequence (P33261 whole entry, looked up): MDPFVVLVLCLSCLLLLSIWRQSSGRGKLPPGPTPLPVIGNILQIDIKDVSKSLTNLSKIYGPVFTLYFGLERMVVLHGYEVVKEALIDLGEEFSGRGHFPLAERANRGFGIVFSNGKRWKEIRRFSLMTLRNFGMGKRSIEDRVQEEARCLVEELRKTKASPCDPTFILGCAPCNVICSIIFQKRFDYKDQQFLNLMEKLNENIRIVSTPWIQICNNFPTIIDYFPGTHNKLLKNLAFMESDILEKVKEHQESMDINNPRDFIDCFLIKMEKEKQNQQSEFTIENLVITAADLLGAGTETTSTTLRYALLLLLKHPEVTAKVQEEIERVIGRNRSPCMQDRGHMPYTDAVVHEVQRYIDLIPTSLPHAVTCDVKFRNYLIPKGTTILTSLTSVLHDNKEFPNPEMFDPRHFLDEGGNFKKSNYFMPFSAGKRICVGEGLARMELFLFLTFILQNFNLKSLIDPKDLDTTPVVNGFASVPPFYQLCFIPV
Experiment: Cytochrome panel assay with activity outcomes; as to activity, negative = inhibition: % is scaled to controls: 0 for no effect and ±100 for the full control effect
Conditions: recombinant CYP, pro-luciferin dealkylation, luminescence, p450-cyp2c19; series mostly up to 57.1 µM
The campaign covered roughly 16,000 compounds. About 5,800 (36%) were called active. Inconclusive results (about 23%) are left out. This is one part of the list.

// worked examples, activity, negative = inhibition included
Cc1cc2c(=O)[nH]c(N)nc2nc1C 20.6% [at 11.4 µM] (inactive)
C[N+]1(C)CCO[C@](O)(c2ccccc2)C1 42.8% [at 11.4 µM] (inactive)
CC1=NN(c2ccccc2)C(=O)[C@@H]1N=Nc1ccc(S(N)(=O)=O)cc1 20.1% [at 11.4 µM] (inactive)
Cc1cc(Cl)ccc1OCC(=O)Nc1nc(N)nc(N)n1 8.03% [at 11.4 µM] (inactive)
O=C(Nc1ccc2oc(=O)c(C(=O)O)cc2c1)Oc1ccccc1 18.7% [at 11.4 µM] (inactive)

Item: O=C(O)[C@@H]1[C@@H](C(=O)NCc2ccncc2)[C@@H]2C=C[C@@H]1O2 | activity, negative = inhibition: 9.32% [at 11.4 µM] (inactive)

###

Molecular target: Cytochrome P450 2C19 (Homo sapiens)
Assay: Cytochrome panel assay with activity outcomes
Settings: recombinant CYP, pro-luciferin dealkylation, luminescence, p450-cyp2c19; series mostly up to 57.1 µM
Out of some 16,000 compounds screened, about 5,800 (36%) were called active. Inconclusive results (about 23%) are left out. Calls follow the shape of the dose curve; as a rule, active = well fitted curve in the direction sought with a large enough effect; inconclusive = small, poorly fitted or top-dose-only effect, or effect the other way; inactive = no such curve, though single readings can be large or run the other way. This is one part of the list.
Allowed answers: true (1) = active, false (0) = inactive

For orientation, consider the following solved cases.
Molecule	Tested on	Group
CCC1(C)Cc2c(sc3nnn(CC(=O)Nc4cccc5ccccc45)c(=O)c23)CO1 (stereo unspecified)	Cytochrome P450 2C19 (Homo sapiens)	true (1)
CCCSc1nc(SCC(=O)NCc2ccccc2)c2c3c(sc2n1)COC(C)(CC)C3 (stereo unspecified)	Cytochrome P450 2C19 (Homo sapiens)	true (1)
Nc1c(S(=O)(=O)c2ccccc2)c2nc3ccccc3nc2n1Cc1ccco1	Cytochrome P450 2C19 (Homo sapiens)	true (1)
Clc1ccc2c(c1)C(N1CCNCC1)=Nc1ccccc1O2	Cytochrome P450 2C19 (Homo sapiens)	false (0)
COc1ccc2ccccc2c1/C=C\C(=O)c1ccccc1	Cytochrome P450 2C19 (Homo sapiens)	true (1)
CC(C)NC(=O)N1CC2(CCN(S(=O)(=O)c3ccccc3)CC2)C1	Cytochrome P450 2C19 (Homo sapiens)	false (0)
Cc1nc2ncnn2c(C)c1CCC(=O)NCc1ccccc1	Cytochrome P450 2C19 (Homo sapiens)	false (0)
O=C1c2c(O)cc(O)cc2O[C@@H](c2ccc(O)c(O)c2)[C@H]1O	Cytochrome P450 2C19 (Homo sapiens)	false (0)

Asked: Look up the recorded call for COc1ccccc1/C=C/C(=O)c1c2c(c(C)[nH]c1=O)CCCC2 in this test.
Given back: true (1)

Asked: Answer briefly: the call reported for Nc1ccccc1S[C@@H](C[N+](=O)[O-])c1ccc2c(c1)OCO2 in this assay.
Given back: true (1)

Asked: Per the assay record, what outcome was assigned to CC(C)NC(=O)N1CCCC2(CCN(S(=O)(=O)c3ccccc3)CC2)C1 ?
Given back: false (0)

Asked: What was the test verdict on CC1(C)Cc2c(sc3nc(-c4ccccc4)n(N)c(=O)c23)CO1 ?
Given back: true (1)

Asked: Per the assay record, what outcome was assigned to Cc1ccn2c(NC(=O)c3ccccc3)c(-c3cccs3)nc2c1 ?
Given back: true (1)

Asked: Answer briefly: the call reported for c1ccc2c(Nc3ccncc3)nc(-c3ccoc3)nc2c1 in this assay.
Given back: true (1)

Asked: Call for entry COCCn1c(=O)c(-c2ccc(OC)cc2)nc2cnc(Nc3cccc(OC)c3)nc21 :
Given back: false (0)
